Can you tell me % Cell Death for the items I'm about to list?
- protocolText: MMV: MTT Cytotoxicity Assay Day 7 pi of Assay #11 (NO washout), U87-CD4-CXCR4 cells, % cell death @ 5mM compound
- Assay type: toxicity, cell-based
- conditionNotes: human, u87-cd4-cxcr4, 5000 µM
Give bare numbers.

{"molecule": "Clc1ccc2[nH]c3c(NCCCN4CCOCC4)ncnc3c2c1", "endpoint": "% Cell Death", "quantitativeReadout": 118}

The following molecules each have a reported value; give each one's % Cell Death.
1. Cl.c1ccc2c(NCCCCCCNc3c4c(nc5ccccc35)CCCC4)c3c(nc2c1)CCCC3
2. COc1ccc(CN2CCCC(C(=O)c3ccc(C(F)(F)F)cc3)C2)c(O)c1 (configuration not stated)
3. CCOC(=O)C1=C(c2ccccc2)N=c2sc(=Cc3cc(C)n(-c4ccc(F)cc4)c3C)c(=O)n2C1c1cccc(OC)c1OC (configuration not stated)
4. COc1ccc(-c2c(C)nn3c(N)c(C#N)cnc23)cc1OC
5. c1ccc2cc3c(Nc4ccc(N5CCOCC5)cc4)ccnc3cc2c1
6. CC1=C(CC(=O)c2cccc([N+](=O)[O-])c2)C(=O)c2ccccc2C1=O
7. CCN(CC)CCCNc1nc(-c2ccc(Cl)cc2)nc2ccccc12

Out:
1: 9; 2: 109; 3: 20; 4: 93; 5: 108; 6: 106; 7: -10

###

Consider the following molecules; for each one, report its % Cell Death.
- protocolText: MMV: MTT Cytotoxicity Assay Day 7 pi of Assay #7 (compound washed out Day 1 pi), U87-CD4-CXCR4 cells, % cell death @ 5mM compound
- Type: toxicity, cell-based
- conditionNotes: human, u87-cd4-cxcr4, 5000 µM
Answers are plain numbers.

# example entries with known answers
{"molecule": "CCC(O)c1ccc(Br)cc1NC(=O)c1cccc(Cl)c1 (stereo not given)", "% Cell Death": 28}
{"molecule": "CCCc1c(C)nc2ccc(Br)cc2c1O", "% Cell Death": 7}
{"molecule": "COc1ccc(/C=C2/SC(=Nc3ccccc3)NC2=O)cc1", "% Cell Death": 77}

For every record below, what is its % Cell Death?
1. COc1ccc(-c2nc(NC(=O)CS(=O)(=O)c3ccc(F)cc3)sc2C)cc1
2. Oc1ccc(-c2nc(-c3ccc4oc5ccc(-c6[nH]c(-c7ccc(O)cc7)nc6-c6ccccc6)cc5c4c3)c(-c3ccccc3)[nH]2)cc1
3. CCOc1ccc(C2N(C)c3ccccc3N2C)cc1
4. O=C(CCl)NCCOc1ccc(Cl)cc1Cl

Out:
[9, 17, 98, -8]

Report % Cell Death for every entry below.
1. COc1ccc(CCNC(=O)c2cc(S(=O)(=O)N3CC(C)CC(C)C3)ccc2Sc2ccc(F)cc2)cc1OC (stereo not given)
2. O=C(CSc1ccc2nnc(-c3cccc(F)c3)n2n1)Nc1ccc2c(c1)OCO2
3. COc1ccc(-n2ccnc2SCC(=O)Nc2cc(C)ccc2C)c(OC)c1

Out:
14
48
-16

###

- protocolText: MMV: MTT Cytotoxicity Assay Day 7 pi of Assay #10 (NO washout), U87-CD4-CCR5 cells, % cell death @ 5mM compound
- Format: toxicity, cell-based
- conditionNotes: human, u87-cd4-ccr5, 5000 µM
Hi, to clarify the labels: T covers % Cell Death from 60 upward, F covers anything below 60.

Use the examples below as a reference point.
{"compound": "CC(O)(c1ccc(Cl)cc1)C(CN1CCCCC1)c1ccccc1.Cl (stereo not drawn)", "assignedCategory": "F"}
{"compound": "CN(C)c1ccc(C=Cc2nc(=O)c3ccccc3o2)cc1", "assignedCategory": "F"}
{"compound": "Cc1ccc(N2C(=O)C3C(C2=O)C2(c4ccccc4)C(=O)C3(c3ccccc3)C(c3ccccc3)=C2c2ccccc2)cc1 (stereo not drawn)", "assignedCategory": "F"}
{"compound": "Cc1ccc(OCCCCCCNCCO)c(C)c1", "assignedCategory": "F"}
{"compound": "c1ccc(/C2=N/c3ccccc3/N=C(/c3ccccc3)c3ccccc32)cc1", "assignedCategory": "F"}
{"compound": "COc1ccc(-c2c(C)nn3c(N)c(C#N)cnc23)cc1OC", "assignedCategory": "T"}

In: Could you tell me if the measured % Cell Death of CC(NCc1ccccc1)c1cc(Cl)ccc1O (stereo not drawn) reaches 60 or more?
Out: F

In: Check this compound for % Cell Death at or above 60: CCOC(=O)c1ccc2[nH]c(-c3ccccc3)cc(=O)c2c1
Out: T

In: Determine whether measured % Cell Death meets or exceeds 60 for O=C(Nc1ccccc1O)c1ccc(Oc2cccc(C(=O)Nc3ccccc3O)c2)cc1
Out: F

In: Quick check, % Cell Death >= 60? Cc1ccc(-c2cc3nc4c(c(O)n3n2)CCCC4)cc1
Out: T

In: Is reported % Cell Death greater than or equal to 60 here: CCc1ccc(CNCC(O)c2ccccc2)cc1.Cl (stereo not drawn)
Out: F

In: Would you say CCCc1c(C)nc2ccccc2c1O shows % Cell Death at minimum 60?
Out: F

In: # bool: % Cell Death of CCCCN(CCCC)S(=O)(=O)c1ccc(NC(=O)c2ccco2)cc1 >= 60
Out: T

###

- protocolText: MMV: MTT Cytotoxicity Assay Day 3 pi, U87-CD4-CCR5 cells, % cell death @ 5mM compound
- Format: toxicity, cell-based
- conditionNotes: human, u87-cd4-ccr5, 5000 µM
Exercise: for every item that follows, state its recorded % Cell Death.
One number for each entry.

Please review the entries below; each comes with its answer.
{"compound": "OC(CNC1CCCC1)Cn1c2ccccc2c2ccccc21 (stereo unspecified)", "quantitativeReadout": 10}
{"compound": "CCC(c1ccccc1)c1nn2c(-c3cccs3)nnc2s1 (stereo unspecified)", "quantitativeReadout": 3}
{"compound": "Oc1ccccc1CN1CCC2(CCCN(Cc3ccccc3F)C2)C1 (stereo unspecified)", "quantitativeReadout": -2}
{"compound": "CCOC(=O)c1cnc2c(C)cc(C)cc2c1Nc1ccc(OC)c(OC)c1", "quantitativeReadout": 11}

For every item below, please supply its % Cell Death.
1. CCOC(=O)c1c(C)n(-c2ccccc2)c2ccc(OC(=O)c3cc(OC)c(OC)c(OC)c3)cc12
2. Oc1ccc(Br)cc1CN1CCN(Cc2ccc(Cl)cc2)CC1
3. CCCc1c(C)nc2ccccc2c1O
4. O=C(O)C(=O)O.Oc1ccccc1CN1CCN(C(c2ccccc2)c2ccccc2)CC1
5. Br.CCn1c2c(c(=N)c3c1CCC3)CCCC2

Out:
[-4, 27, 5, 4, -56]

Hi, could you look up % Cell Death for each item in my list?
1. COc1ccc(-c2nc(NC(=O)CS(=O)(=O)c3ccc(F)cc3)sc2C)cc1
2. CCN(CC)CCCNc1nc(-c2ccc(Cl)cc2)nc2ccccc12

Out:
1. 41
2. -18

###

Hi there, I'd appreciate the recorded % Cell Death for every entry that follows.
- protocolText: MMV: MTT Cytotoxicity Assay Day 3 pi, U87-CD4-CCR5 cells, % cell death @ 5mM compound
- Type: toxicity, cell-based
- conditionNotes: human, u87-cd4-ccr5, 5000 µM
One number for each entry.

Worked examples follow.
{"compound": "O=C(NC1CCCCC1)C(c1cccs1)N(CCc1ccccc1)C(=O)c1ccco1 (configuration not stated)", "endpoint": "% Cell Death", "quantitativeReadout": 93}
{"compound": "CCN1CCN(c2c(C(=O)c3ccccc3)cnc3cc(OC)c(OC)cc23)CC1", "endpoint": "% Cell Death", "quantitativeReadout": 43}
{"compound": "Cc1ccc(-c2cc(C(=O)Nc3ccc(S(=O)(=O)N4CCCCC4)cc3)[nH]n2)c(O)c1", "endpoint": "% Cell Death", "quantitativeReadout": -5}

Report % Cell Death for each item below.
1. CCCCCCc1cc2cc(-c3csc(C=Cc4ccccc4)n3)c(=O)oc2cc1O
2. CCC1(C)CC(CCNCc2ccccc2O)(c2ccc(C)cc2)CCO1 (configuration not stated)
3. CCOc1ccc(-c2nonc2NC(=O)c2cccc(C)c2)cc1OCC
4. COc1ccc(NC(=O)C2c3ccccc3C(=O)N(CC(C)C)C2c2cccs2)cc1Cl (configuration not stated)
5. O=C(NC1CCCC1)c1ccc(N2CCC(NCc3cccc(C(F)(F)F)c3)CC2)cc1
6. Cc1cc(Nc2ccc3ccccc3c2)n2ncnc2n1
7. FC(F)(F)c1cccc(Nc2nc(-c3ccccc3)nc3ncccc23)c1
8. Cc1ccc(NC(=O)Nc2cccc(Cl)c2)cc1F

Out:
1: 35; 2: -22; 3: -8; 4: 13; 5: 4; 6: 39; 7: 1; 8: -7

###

- Test system: Human immunodeficiency virus 1
- protocolText: MMV: HIV CXCR4-tropic env HxB2 pseudovirus assay produces luciferase signal in lieu of replicating viral particles Day 3 pi, U87-CD4-CXCR4, % inhibition at 5 mM compound
- Assay type: functional
- Parameters: dose or concentration left out as unconfirmed
- conditionNotes: Human immunodeficiency virus 1, HxB2, U87.CD4.CXCR4, 72 h
endpoint: inhibition (%)
One number for each entry, in %.

Completed entries (count: 3):
{"compoundString": "COc1cc(C(=O)Nc2nc3c(cc4c5c(cccc53)CC4)s2)cc(OC)c1OC", "inhibition [%]": 0}
{"compoundString": "COc1ccc(-c2nc3cc(Cc4ccc5[nH]c(-c6ccc(OC)cc6)nc5c4)ccc3[nH]2)cc1", "inhibition [%]": 1}
{"compoundString": "CCc1ccc(Nc2cc(C)nc3nc(C)nn23)cc1", "inhibition [%]": 6}

Query molecule follows.
In: Give reported inhibition value for COc1ccc(C(=O)Nc2nonc2-c2ccc(OC)c(OC)c2)cc1Cl
Out: 9
